Data origin, for the record: ChEMBL document CHEMBL3232847

Assay: Half life in rhesus monkey at 0.2 mg/kg, iv
Assay type: ADME, organism-based, Macaca mulatta
Set-up: dose 0.2 mg/kg, route intravenous
Details: in vivo
value-type: half-life (h)

{"structure-string": "CC1(C)Oc2ncnc(N)c2N=C1c1ccc([C@H]2CC[C@H](CC(=O)O)CC2)cc1", "test-value": 1.8}

###

Test: AUC in Sprague-Dawley rat at 100 mg/kg, po qd
Assay type: ADME, organism-based
Parameters: dose 100 mg/kg, route oral
Details: plasma

{"structure-string": "CC1(C)Oc2nc(C(F)(F)F)nc(N)c2N=C1c1ccc2c(c1)CC[C@]21CC[C@@H](CC(=O)O)CC1", "measurement-units": "µM·h", "AUC": 677}
